# Tested on: Vibrio cholerae
# assay.explanation: Antibacterial activity against Vibrio cholerae MTCC 3906 after 24 hrs by broth microdilution method
# Format: functional
# recorded.conditions: MTCC 3906, 24 h
Quick reference for MIC among some compounds
assay.readout: MIC

>>> print(df.to_string())
                                smiles_repr     result
0  Cc1nn(-c2ccccc2)c2c1[C@@H]1c3cc4ccccc4nc3SC[C@@H]1CO2  100 µg/mL
1  Cc1nn(-c2cccc(Cl)c2)c2c1[C@@H]1c3cc4ccccc4nc3SC[C@@H]1CO2  200 µg/mL
2  Cc1nn(-c2ccccc2)c2c1[C@@H]1c3c(ccc4c(C)cc(=O)oc34)OC[C@@H]1C(C)(C)O2  250 µg/mL
3  Cc1nn(-c2ccccc2Cl)c2c1[C@@H]1c3cc4cccc(C)c4nc3SC[C@@H]1CO2  200 µg/mL

---

# Tested on: Escherichia coli
# assay.explanation: Antibacterial activity against Escherichia coli MTCC 443 after 24 hrs by broth microdilution method
# Format: functional
# recorded.conditions: MTCC 443, 24 h
Could you mark each record 1.0 if its MIC falls strictly under 200 µg/mL, and 0.0 if it equals or exceeds it?

In [3]: df
Out[3]:
                                    molecule     tested_system  group
 0  Cc1nn(-c2cccc(Cl)c2)c2c1[C@@H]1c3cc4ccccc4nc3SC[C@@H]1CO2  Escherichia coli    1.0
 1  CC1(C)S[C@@H]2[C@H](NC(=O)[C@H](N)c3ccccc3)C(=O)N2[C@H]1C(=O)O  Escherichia coli    1.0
 2  Cc1nn(-c2ccccc2Cl)c2c1[C@@H]1c3cc4cccc(C)c4nc3SC[C@@H]1CO2  Escherichia coli    0.0
 3  Cc1nn(-c2ccc(Cl)c(Cl)c2)c2c1[C@@H]1c3cc4cccc(C)c4nc3SC[C@@H]1CO2  Escherichia coli    0.0
 4  Cc1nn(-c2ccc(Cl)c(Cl)c2)c2c1[C@@H]1c3c(ccc4c(C)cc(=O)oc34)OC[C@@H]1CO2  Escherichia coli    0.0
 5  Cc1nn(-c2ccccc2Cl)c2c1[C@@H]1c3cc4ccccc4nc3SC[C@@H]1CO2  Escherichia coli    0.0
 6  Cc1nn(-c2ccc([N+](=O)[O-])cc2)c2c1[C@@H]1c3cc4cccc(C)c4nc3SC[C@@H]1CO2  Escherichia coli    1.0
 7  Cc1nn(-c2ccccc2)c2c1[C@@H]1c3c(ccc4c(C)cc(=O)oc34)OC[C@@H]1CO2  Escherichia coli    0.0
 8  Cc1nn(-c2ccccc2)c2c1[C@@H]1c3cc4ccccc4nc3SC[C@@H]1CO2  Escherichia coli    1.0
 9  Cc1ccc(-n2nc(C)c3c2OC(C)(C)[C@H]2COc4ccc5c(C)cc(=O)oc5c4[C@@H]32)cc1  Escherichia coli    1.0
10  Cc1nn(-c2cccc(Cl)c2)c2c1[C@@H]1c3cc4cccc(C)c4nc3SC[C@@H]1C(C)(C)O2 (single isomer, unassigned)  Escherichia coli    1.0
11  Cc1ccc(-n2nc(C)c3c2OC[C@H]2CSc4nc5ccccc5cc4[C@@H]32)cc1  Escherichia coli    1.0
12  O=C(O)c1cn(C2CC2)c2cc(N3CCNCC3)c(F)cc2c1=O  Escherichia coli    1.0
13  Cc1nn(-c2cc(Cl)ccc2Cl)c2c1[C@@H]1c3cc4ccccc4nc3SC[C@@H]1CO2  Escherichia coli    0.0
